- Tested Target: HER2 (Homo sapiens, UniProt P04626)
- Construct: a human breast tumor cell line which expresses high levels of HER2 kinase; endogenous in cells
- Sequence (P04626 23-1255): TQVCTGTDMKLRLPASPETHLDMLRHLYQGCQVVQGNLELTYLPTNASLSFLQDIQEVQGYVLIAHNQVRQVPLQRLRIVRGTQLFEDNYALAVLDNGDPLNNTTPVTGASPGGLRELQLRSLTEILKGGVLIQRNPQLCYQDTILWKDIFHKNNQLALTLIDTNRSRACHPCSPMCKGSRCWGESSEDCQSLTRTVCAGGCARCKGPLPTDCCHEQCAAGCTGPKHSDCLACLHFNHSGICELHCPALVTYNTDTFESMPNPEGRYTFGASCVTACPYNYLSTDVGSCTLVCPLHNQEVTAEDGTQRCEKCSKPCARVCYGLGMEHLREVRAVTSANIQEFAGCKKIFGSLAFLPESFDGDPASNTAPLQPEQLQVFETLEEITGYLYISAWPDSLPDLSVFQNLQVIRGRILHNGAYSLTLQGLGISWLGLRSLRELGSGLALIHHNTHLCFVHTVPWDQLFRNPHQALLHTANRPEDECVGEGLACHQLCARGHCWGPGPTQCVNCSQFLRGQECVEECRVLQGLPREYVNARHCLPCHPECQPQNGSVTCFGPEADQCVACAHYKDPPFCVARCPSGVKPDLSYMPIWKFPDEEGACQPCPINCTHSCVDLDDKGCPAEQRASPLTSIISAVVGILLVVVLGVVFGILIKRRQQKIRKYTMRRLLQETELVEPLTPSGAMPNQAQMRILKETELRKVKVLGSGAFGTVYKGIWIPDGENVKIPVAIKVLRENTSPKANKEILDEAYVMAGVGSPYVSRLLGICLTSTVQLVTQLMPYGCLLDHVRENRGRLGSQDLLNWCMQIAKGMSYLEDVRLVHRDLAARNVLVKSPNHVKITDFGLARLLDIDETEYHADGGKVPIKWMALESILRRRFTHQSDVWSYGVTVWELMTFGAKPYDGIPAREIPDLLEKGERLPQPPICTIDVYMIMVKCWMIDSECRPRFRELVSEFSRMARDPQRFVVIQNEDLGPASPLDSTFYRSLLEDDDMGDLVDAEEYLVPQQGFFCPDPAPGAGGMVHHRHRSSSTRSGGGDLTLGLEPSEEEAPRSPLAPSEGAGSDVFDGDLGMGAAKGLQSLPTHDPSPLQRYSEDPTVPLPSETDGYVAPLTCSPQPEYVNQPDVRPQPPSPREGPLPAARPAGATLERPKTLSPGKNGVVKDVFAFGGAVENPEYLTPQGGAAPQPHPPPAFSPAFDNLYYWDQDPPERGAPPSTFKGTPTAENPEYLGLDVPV
- Method: HER2-ELISA, whole cell HER2 activity in BT474 cells
- Run Parameters: BT474 human breast tumor cells; serum-free; 2 h drug preincubation
Quantity Measured: IC50

Please tell me: IC50 of COC(=O)C(c1cccc(Br)c1)c1ncnc2cc(OC)c(OC)cc12 (stereo not shown) [Compound D002] , system HER2 (Homo sapiens, UniProt P04626)?
> 100 µM

* * *

- Tested on: chimeric receptor containing the EGFR extracellular domain and the HER2 intracellular kinase domain
- Method: EGFR-HER2 chimeric receptor whole cell kinase assay in NIH3T3 cells (ELISA)
- Assay type: cell-based
- Run Parameters: NIH3T3 cells with EGFR/HER2 chimeric receptor; 100 nM EGF; 2 h drug incubation; read-out: ELISA DATA HER2 - (3T3)
Quantity Measured: IC50

Bench note: what IC50 did COC(=O)C(c1cccc(Br)c1)c1ncnc2cc(OC)c(OC)cc12 (stereo not shown) show?
> 50 µM
